targetUnderTest: Genome polyprotein (Dengue virus type 2 (strain 16681-PDK53))
assayComment: flavivirus cap methylation enzyme inhibition – biochemical, confirmation dose response, primary screen (AID 588689)
runConditions: Dengue-2 NS5 methyltransferase capping enzyme assay, at 25 µM, hits give high values
In all, about 340,000 compounds went through this assay and about 1,000 (0.29%) were called active. The list is a sample of the results. Potency and affinity values are given separately.
Entries and their measured inhibition follow.
assayEndpoint: inhibition (%)

molecule | assayEndpoint | measuredValue
O=C(O)Cn1c(CC(=O)N2CCCC2)nc2ccccc21 | inhibition | 2.7
O=C(NNC1CC(=O)N(c2cccc(Cl)c2)C1=O)c1cccs1 (centres undefined) | inhibition | 3.87
CN(C)/N=C/c1c(O)ccc2ccccc12 | inhibition | 10.4
COc1ccc(/C=C2/C(=O)ON=C2C)cc1Br | inhibition | 17.8
CCCCCCC(=O)O | inhibition | -2.09
O=C(Nc1cccc(Cl)c1)C1C2C=CC3(O2)C1C(=O)N(CCCN1CCCCC1)C3C(=O)NC1CCCCC1 (centres undefined) | inhibition | -16
O=S(=O)(c1ccc(Br)cc1Cl)N1CCN(CCO)CC1 | inhibition | 0.74
CC(=O)Nc1ccc(NC(=O)c2nc(S(=O)(=O)Cc3cccc(C)c3)ncc2Cl)cc1 | inhibition | -42.6
Cc1ccc(NC(=S)NN2CCN(C)CC2)c(C)c1 | inhibition | 3.57
Cc1ccc(NC(=O)COC(=O)C2C3CC4OC(=O)C2C4C3)cc1 (centres undefined) | inhibition | -4.16
COC(=O)c1sc(-c2ccccc2)cc1NC(=O)c1ccccc1 | inhibition | -1.45
OCC(CO)(CO)N=Cc1c(O)ccc2ccccc12 | inhibition | 24.8
COC(=O)c1sc(-c2ccc(Cl)cc2)cc1NC(=O)/C=C/C(=O)O | inhibition | 16.1
OCC(CO)(CO)n1cnnn1 | inhibition | -8.59
CCCC(N)CCCCCC(=O)O (centres undefined) | inhibition | -9.35
CC(=O)C1=C(O)C(=O)N(Cc2ccccc2)C1c1ccc(N(C)C)cc1 (centres undefined) | inhibition | -5.27
CCOC(=O)C1=CN(Cc2ccco2)S(=O)(=O)N(C)C1c1ccc(C(F)(F)F)cc1 (centres undefined) | inhibition | -11.6
CC(=O)N1CCN(c2ccc(NC(=S)NC(=O)c3ccc(C)c([N+](=O)[O-])c3)cc2)CC1 | inhibition | -2.35
Cc1ccc(NC(=O)CC(=O)c2ccccc2)cc1C | inhibition | -1.66
CC(=O)OCC1CCCC2=C(C)C(=O)CCC21COC(C)=O (centres undefined) | inhibition | 3.29
Cc1cc(=O)oc2c(CN3CCN(CCO)CC3)c(O)ccc12 | inhibition | -1.72
CC(C)(C)OC(=O)N1CCCC(C(=O)CC#N)C1 (centres undefined) | inhibition | -13.4
CCOc1cc(/C=C2/C(=O)ON=C2C)cc(Br)c1O | inhibition | -74.3
Cc1cccc(CS(=O)(=O)c2ncc(Cl)c(C(=O)Nc3c(C)cccc3C)n2)c1 | inhibition | -57.4

* * *

targetUnderTest: Genome polyprotein (Dengue virus type 2 (strain 16681-PDK53)) (UniProt P29991)
assayComment: flavivirus cap methylation enzyme inhibition – biochemical, confirmation dose response, primary screen (AID 588689)
runConditions: Dengue-2 NS5 methyltransferase capping enzyme assay, at 25 µM, hits give high values
Hit rate of the full screen: of about 340,000 compounds, about 1,000 (0.29%) were called active. A selection follows. Results with a measured potency or affinity are listed apart.
assayEndpoint: inhibition (%)

molecule | targetUnderTest | measuredValue
COc1ccc(C(=O)OCc2csc(C)n2)c(O)c1 | Genome polyprotein (Dengue virus type 2 (strain 16681-PDK53)) (UniProt P29991) | -2.19
COc1ccc(C(CCN2CCOCC2)c2c(O)cc(OC)cc2OC)cc1 (stereo unspecified) | Genome polyprotein (Dengue virus type 2 (strain 16681-PDK53)) (UniProt P29991) | -0.7
CC(C)N1C(=O)CCN(C=O)c2ccccc21 | Genome polyprotein (Dengue virus type 2 (strain 16681-PDK53)) (UniProt P29991) | -9.31
CCCCCNC(=O)C1CCC(Cn2c(=S)[nH]c3ccccc3c2=O)CC1 (stereo unspecified) | Genome polyprotein (Dengue virus type 2 (strain 16681-PDK53)) (UniProt P29991) | -0.74
COC(=O)c1ccc(NC(=O)C(=O)N2CCN(C(=S)Nc3cccc(C)c3C)CC2)cc1 | Genome polyprotein (Dengue virus type 2 (strain 16681-PDK53)) (UniProt P29991) | -4.36
N#Cc1c(-c2ccc(Cl)cc2)cc(-c2ccccc2)nc1SCC(=O)O | Genome polyprotein (Dengue virus type 2 (strain 16681-PDK53)) (UniProt P29991) | 1.16
COc1ccc(-c2cc(-c3ccccc3)c(C#N)c(SCC(=O)O)n2)cc1 | Genome polyprotein (Dengue virus type 2 (strain 16681-PDK53)) (UniProt P29991) | 14
CN(C1CCCCC1)S(=O)(=O)c1cn(C)c(=O)n(C)c1=O | Genome polyprotein (Dengue virus type 2 (strain 16681-PDK53)) (UniProt P29991) | -3.31
CNC(=O)NC(=S)NC(=O)c1ccccc1Cl | Genome polyprotein (Dengue virus type 2 (strain 16681-PDK53)) (UniProt P29991) | 2.96
O=C(NCCc1ccccc1)C(=O)Nc1ccc2c(c1)OCCO2 | Genome polyprotein (Dengue virus type 2 (strain 16681-PDK53)) (UniProt P29991) | -12.2
Cc1nc(COC(=O)c2ccc(CO)cc2)cs1 | Genome polyprotein (Dengue virus type 2 (strain 16681-PDK53)) (UniProt P29991) | -2.35
